B1: library; numbered along this chain (parent)
chain: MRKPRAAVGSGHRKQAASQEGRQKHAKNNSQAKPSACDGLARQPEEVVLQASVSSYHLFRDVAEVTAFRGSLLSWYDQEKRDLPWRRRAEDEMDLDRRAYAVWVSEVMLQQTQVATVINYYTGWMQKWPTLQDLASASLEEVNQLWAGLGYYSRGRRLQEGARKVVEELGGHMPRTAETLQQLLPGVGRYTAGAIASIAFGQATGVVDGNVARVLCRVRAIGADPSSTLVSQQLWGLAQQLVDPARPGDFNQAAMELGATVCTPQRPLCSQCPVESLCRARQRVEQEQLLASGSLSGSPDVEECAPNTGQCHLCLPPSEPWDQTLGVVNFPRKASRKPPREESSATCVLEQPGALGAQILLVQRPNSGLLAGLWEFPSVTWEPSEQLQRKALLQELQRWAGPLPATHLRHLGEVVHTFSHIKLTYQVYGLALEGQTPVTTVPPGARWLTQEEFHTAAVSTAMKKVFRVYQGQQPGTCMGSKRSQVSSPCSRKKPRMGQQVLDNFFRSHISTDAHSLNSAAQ

# Variants of: B1
# ASSAY_TEXT: 8OG:A repair function score (normalized; synonymous = 0, nonsense = -1) (normalized log-likelihood score); higher = more repair activity (WT-like);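 further: cells sorted at 72 h after reporter transfection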
# EXPERIMENTAL_PARAMETERS: with 8OG:A DNA repair reporter (GFP) in HEK-293 MUTYH KO cells
OBSERVED_PROPERTY: 8OG:A repair function score
Answers are plain numbers.

// worked examples, 8OG:A repair function score included
INSERT INTO assay_data (changes, readout_number) VALUES
  ('P185K', -0.102),
  ('L396W', -0.581);

For every listed record, write down its 8OG:A repair function score.
1. A238M
2. P316A
3. G186L
4. N307T
5. F505K
6. K3A

1. 0.0352
2. -0.176
3. -1.02
4. -0.07
5. -0.0487
6. 0.108

For every listed record, write down its 8OG:A repair function score.
1. Q265P
2. A147D

[-0.252, -0.118]

For every listed record, write down its 8OG:A repair function score.
1. H57Y
2. Q498N

[-0.569, -0.0368]
